experiment: soluble on expression in E. coli; label from the status in PepcDB or PDB records

{"residue_codes": "DPAGLLDLRQGMFAQLVAQNVLLIDGPLSWYSDPGLAGVSLTGGLSYKEDTKELVVAKAGVYYVFFQMELRRVVAGEGSGSVSLALHLMPLRSAAGAAALALTVDLPPASSEARNSAFGFQGRLLHLSAGQRLGVHLHTEARARHAWQLTQGATVLGLFRVTPEIPA", "soluble on expression in E. coli": "soluble"}
{"residue_codes": "MSDDGSDTSFEEPHGDFDYTLLFEKFNKEVPKMEEVMKAAKKFGASHRHLINKFILEPSMSAKKMNLMFAKHLTTAIWKRHPDTVMQIQTNREEARQLSKLIVKTMNDDEGKGPKPFRPWRFVISTDEKSPTEFVTMTGCGRNSSVISEASDLTKVERALLLVILEEMISSDGTVQMDWVHSQIRHEPCKMPGPKCDIFMAKMMRQRYFLMTDENEVAEITPRILVELEPWLRAKFTGDLKTCELCRKIISRSVYTAECQKCHALCHFNCFKNATIISHQDNVECQKCNQNLSLNEVLKQIDTKKATGVPRSRDTVARSPSPDSDVPKAPSRTQRAKSKSKTPAPVDSDDDMTITPRPTRGKRNQRVPDSDSE", "soluble on expression in E. coli": "not soluble"}
{"residue_codes": "INPPQHKQFQNLMPMQPRRYPEGKVLPDREREFPNTFPEHSSPLLLPKQELDMRWRGPHPLPGY", "soluble on expression in E. coli": "not soluble"}
{"residue_codes": "MLWGRREFVMREEDTVCVGSDGLQYCKVCGEAKEAFFPEGGFMGMKKHSRQCACDRKAYEEEQKYFKDKEHRELVSRNTSICFDESRMEEWTFENADMSDAVMHKAKSYVDNWEEMKRNHIGCLFWGPVGTGKSFIAGCIANELLKQEVTVKMTNFNTIIDDIFPLADKTEYINALASYQLLIIDDLGVERNSEYALGIIFSVIDRRIRSGRPLIITTNLPLNEIKSETMLDKRRIYDRILEMCTPMYVGGASKREAIASMKMEKAKTLLNTNKGEE", "soluble on expression in E. coli": "not soluble"}
{"residue_codes": "GFKDYGHDYHPAPKTENIKGLGDLKPGIPKTPKQNGGGKRKRWTGDKGRKIYEWDSQHGELEGYRASDGQHLGSFDPKTGNQLKGPDPKRNIKKYL", "soluble on expression in E. coli": "soluble"}
{"residue_codes": "MDQFSEPEETQVEQVENPDRNEAGYEVCNQSGENLSVAIAYFDTSIDSYRSEGWWNLDQSKCQFFPNLLDSVDEVYVFAESDQTLWSGDFPFCMQEDAFEYPDANRDRCPSPAYSKGFLKVEVGDAKTWTTLEHHHHHH", "soluble on expression in E. coli": "soluble"}
{"residue_codes": "MSLRSRDITLTGTYLPNTPVTLVVDGVAQVQGMTDSAGRFRLTGTLEPGRNRVYVMGEGPLASREYAVRYLPPYTDMAGHWAEAVVDALHERGVVSLYPLPRFEPEAQVTRMEFAVMVARALRLPAAEEQAPFTDVAVMPQWALLEVAAAVKAGIIKGMPDGSFAPDRLVTRAEMAAMLTRALAWAGLEVKPEAPEFADQAEIPDWAVEPVAAAVRHGLIKGYPDGTFRPGSPTTRAEAATMVHRLLQTVIGLNPEGHHHHHH", "soluble on expression in E. coli": "soluble"}
{"residue_codes": "GMNTNLASFIVGLIIDENDRFYFVQKDGQTYALAKEEGQHTVGDTVKGFAYTDMKQKLRLTTLEVTATQDQFGWGRVTEVRKDLGVFVDTGLPDKEIVVSLDILPELKELWPKKGDQLYIRLEVDKKDRIWGLLAYQEDFQRLARPAYNNMQNQNWPAIVYRLKLSGTFVYLPENNMLGFIHPSERYAEPRLGQVLDARVIGFREVDRTLNLSLKPRSFEMLENDAQMILTYLESNGGFMTLNDKSSPDDIKATFGISKGQFKKALGGLMKAGKIKQDQFGTELI", "soluble on expression in E. coli": "soluble"}
{"residue_codes": "MDRFDAMRAFARVVETGSFTKAADTLHMSKTSVTQLVQQLEARLRVRLLNRTTRKVNATADGAAYYERVRQLLADLEDAETSLSGASATPGGRLRVDVPSPFASTILVPALPAFQARYPDILLHLGVSDREVDLIDENVDCVIRGGQIGNLSLAARHVGDLQLGVYASPGYLARAGVPAHPRELQDAQHRIIGFSWSRARRLFPCAMRRRADERIEVAGRHALLLDEGNAYLAAGLAAMGVIGVPTYMAEAHVERGALIRLFGDWRLDPMPLYIAYPQNRHVSAKLRVFIDWIVELMARHAPVTDAPPPHRSARMPGGPAAIPTDITGA", "soluble on expression in E. coli": "not soluble"}
{"residue_codes": "MAAKFHLKKAKDGQFHFNLHAANGEIILTSELYKAKDSALGGIESVRKNSQRDGAFEVKPANNGKFHFVLKATNGQVVGQSQLYASQANAEAGVQSVKRATPEAGLSDES", "soluble on expression in E. coli": "not soluble"}
{"residue_codes": "MFYRDVLIESRERNIFMSKELQIRNSTVDFLVFTRDAREDGIEVRVQNGDVWLTQKAISQLFDVDRSVVTKHLSNIFKEGELDENSTCANFAQVADNGKTYNYKFYSLAAIIAVGYRINSERAMQFRTWATKVLDTFTKQGYVLDKSRLINGQIFDEDYFEHLIAEIQEIRASERRFYQKITDIYATAVDYDKNSQVTREFYATVQNKMHYAVHGNTAAEVIVARANHNKKHMGLKSWKNAPDGKIVKTDVSIAKNYLEKEELAELNEIVTMYLDYATRQARRHIPMTMEDWKTKLDAFLRFNDAEVLQDKGKVTAAIAKEFAESEFEKYRVIQDSLYESDFDKLMNDMEKNDAIH", "soluble on expression in E. coli": "not soluble"}
{"residue_codes": "MPPGKNFRRRKEDSSDEEDDETKFVVRSKLDEAKELQSLRKRQHGVSIATLLVGEKLPLEAELEDDPFKLKTGGVVDMKKVKDRSRDMTVDENDLNLGTSFSAETNRRDEDADMMKYIETELKKKKGMVEAEEQKVKVKNPEDLLYELPENINVSSAKKTEEMLSNQMLSGIPEVDLGIDAKIKNIINTEEAKAKLLAEQRNKKKDSGTSFVPTNIAVNYVQHNRFYHEDSNAPQRRNREEPKARPLRVGDTEKPAPEASPPNFRKRPNNEKATDDYHYEKFKKMNRRY", "soluble on expression in E. coli": "soluble"}

* * *

assay: soluble on expression in E. coli; label from the status in PepcDB or PDB records

{"residue_codes": "MAHHHHHHMPELSYMFSSVSEPRALGAADDGQVITSHSNSSNNNHNNFYPLYSASGSTKVSNYGGHFENNGNNIISMNNKSDVNANTCGDSGEKGNEGEKWIWVLDPLTRKLRVPLSQLVHTQATATTGTVPSLCISFLEGRCRHQWCRQAHVLPSAIPQLRHEALHAPTCCRLHDDPHDTSVLTSRFKYIRVV", "soluble on expression in E. coli": "not soluble"}
{"residue_codes": "MQTGRQQNKGTIFASLNMSRKNRHNVLPRATMLRKKAIQIRLNEAEHKAVETYCSRFKVENRSRWIRETLMKEVIHRLESDTPLLFREEEMR", "soluble on expression in E. coli": "not soluble"}
{"residue_codes": "MKVMNIIHDSVVDGEGLRTVVFFAGCPHRCVGCHNPKSWNICNGTEMTVEEIVKEIASNPLTDVTFSSGDPFFQAAEVKKVAKIGKDLKKNLWMYTGYTLEEIQSSQNNDMIELLHYGDVLVDGRFEIEEKDLTLPFRGSSNQRIIRLKELEHHHHHH", "soluble on expression in E. coli": "not soluble"}

* * *

assay: soluble on expression in E. coli; label from the status in PepcDB or PDB records

{"residue_codes": "MEFGEKLIHLRKKNRLTQKQLAAKIGTTASTISKYENDNHRPPIFILAKLAEILGTTTDFLLDDVAGLREKNSVNAFPLIGNPELEKWYLELPYTYSEEELLMLKRIADAIENKK", "soluble on expression in E. coli": "not soluble"}
{"residue_codes": "MGSDKIHHHHHHMREQLDQVGSGGVTGATGLLGNNLVRELVARGYTVKGLVRSKAKGEQQFNNLPGVELVVGDMAEVDAFAASLQGCDTVFHTASFFRDNYKGGSHWKELEQINVSGTRRLLEQAYGAGIRRFIHTSSIAVLNGAPGTSIEENCLRADADADDYYRSKILADRVVLSFLESHPQMHACMVLPGWMWGPGDVGPTSSGQLVNDVVQGKLPGLIPGSFSIVDARDVALAHIAAARHGRRGERYLAAGRHMTMRELMPVLGRMAGVKTPARQIPLPFLYTLAAVQEIYARLTGRPILLSMATLRLLVREQDRTRFDHRKSEQELGLSFRALELTIADTVAWYRDHGWFEKGSRL", "soluble on expression in E. coli": "not soluble"}
{"residue_codes": "MIDLYYAPTPNGHKITLFLEEAELAYRLLKVDISKGNQFRPDFLAISPNNKIPAIVDHAPADGGQPLSLFESGEILLYLAEKSGKLLSGELRERHTTLQWLFWQVGGLGPMLGQNHHFNHFAPQAIPYAIERYQVETQRLYNVLNKRLETSPWLGGDHYSIADIASWPWVNAHQRQRIDLDTYPAVYNWFERIRTRPATARALLQAQLHCNSTKA", "soluble on expression in E. coli": "not soluble"}
{"residue_codes": "MGSDKIHHHHHHLTNLLVIGATGNIGQPLIRDLQDDPDVHLFAGVHNSEHAKQALNGLKVQVRRFDFLDPATFEQALADIDKVFFVRPPQLAKPKEDMYPFLDALVARHVKQVVFVSLLGVAHNPMTPHHQIEKRIVELGLPYTFIRPSFFMQNLNTTHQADIVGHRDLFVPAGHARTSFIDTRDIGATAAVILRDPAYIGQKLDITGAQALTYADAAQIMTMELGVPITYSKPSLWRFRKVMLQRGLPKNYVNVMVMLYLITQLGNAKTVTTTLPNVLGRPAISFEQYVHDYRAEFLPKPLS", "soluble on expression in E. coli": "not soluble"}
{"residue_codes": "MGSDKIHHHHHHMERNTRVVKVANLKIGGNNPIIIQSMTNTNSADVEATVKQINNLEKVGCQLVRMTINNIKAAEAIKEIKKKVSLPLVADIHFDYRLALLAIKNGIDKLRINPGNIGSDENVKKVVEAAKEKNIPIRIGVNSGSIEKEILEKYGKPCVDALVESAMYHIRLLEKFDFFDIIVSLKSSNVKMMVEAYRKISSLVDYPLHLGVTEAGTKFQGTVKSAIGIGALLVDGIGDTLRVSLTENPVEEIKVAKEILKVLDLSDEGVEIISCPTCGRTEIDLIGLAKQVEEEFRTKKNKFKIAVMGCVVNGPGEAREADYGIAAGRGIGILFKKGEIIKKVSESNLLEELKKMISEDLENKKD", "soluble on expression in E. coli": "not soluble"}
